target: human PD-L1 (human) (UniProt Q9NZQ7); experiment: flow cytometry, MFI on PD-L1 over MFI on CD28
Sequence (Q9NZQ7 19-290): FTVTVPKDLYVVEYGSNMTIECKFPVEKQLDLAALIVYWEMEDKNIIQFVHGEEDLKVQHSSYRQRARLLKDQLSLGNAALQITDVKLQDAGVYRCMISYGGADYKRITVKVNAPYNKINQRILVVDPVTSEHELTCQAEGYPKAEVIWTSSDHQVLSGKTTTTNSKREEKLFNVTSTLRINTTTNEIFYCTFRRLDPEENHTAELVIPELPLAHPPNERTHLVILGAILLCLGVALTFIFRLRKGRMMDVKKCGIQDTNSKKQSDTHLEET
Reported Ratio of PDL1:CD28 values for a set of binders
PROPERTY_LABEL: Ratio of PDL1:CD28

| BINDER | TEST_RESULT |
| --- | --- |
| CD80 H18Y/E35D/M47V/V68M/L85M IgV-Fc (Fc fusion) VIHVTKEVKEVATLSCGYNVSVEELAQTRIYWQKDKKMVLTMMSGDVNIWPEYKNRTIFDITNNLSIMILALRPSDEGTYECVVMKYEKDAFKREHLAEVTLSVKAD | 45 |
| CD80 T13R/Q33R/E35D/M38I/M47L/V68M/E95V/L97Q IgV-Fc (Fc fusion) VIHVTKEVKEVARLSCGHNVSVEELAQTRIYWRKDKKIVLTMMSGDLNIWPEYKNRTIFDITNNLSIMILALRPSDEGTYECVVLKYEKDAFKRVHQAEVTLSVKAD | 17.2 |
